- assayed target: human mAChR M4 (Homo sapiens, UniProt P08173)
- Sequence (P08173 whole entry): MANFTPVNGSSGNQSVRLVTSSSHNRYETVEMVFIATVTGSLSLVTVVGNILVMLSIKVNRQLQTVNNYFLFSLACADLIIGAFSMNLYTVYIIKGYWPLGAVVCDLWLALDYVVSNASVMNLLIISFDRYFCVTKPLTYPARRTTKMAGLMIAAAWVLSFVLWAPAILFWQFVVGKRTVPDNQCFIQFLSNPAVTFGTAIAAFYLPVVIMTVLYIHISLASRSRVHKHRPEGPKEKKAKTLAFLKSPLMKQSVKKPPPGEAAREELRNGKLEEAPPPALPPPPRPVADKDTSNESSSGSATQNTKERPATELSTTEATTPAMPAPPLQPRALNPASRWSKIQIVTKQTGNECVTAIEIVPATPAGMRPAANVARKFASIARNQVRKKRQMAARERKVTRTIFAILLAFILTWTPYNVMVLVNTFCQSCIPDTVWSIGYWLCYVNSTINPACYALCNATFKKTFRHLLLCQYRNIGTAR
- procedure details: mAChR M4 cell-based functional assay: calcium mobilization (Fluo-4, FDSS), potentiation of EC20 acetylcholine response in hM4-Gqi5 CHO-K1 cells
- measurement conditions: potentiation of EC20 acetylcholine response, calcium mobilization, human M4
pEC50: −log10 of the molar value.
Decide using pEC50: a value greater than or equal to 7 is met, a smaller one is not met.

INSERT INTO assay_data (structure_string, assayed_target, group) VALUES
  ('Cc1cc2nccc(=O)n2nc1N1CCc2ncc(Nc3ccncc3F)cc2C1', 'human mAChR M4 (Homo sapiens, UniProt P08173)', 'met'),
  ('Cc1cc(C(F)(F)F)ncc1-c1cnc2c(c1)CN(c1nn3c(=O)ccnc3cc1C)CC2', 'human mAChR M4 (Homo sapiens, UniProt P08173)', 'not met'),
  ('Cc1cc2nccc(=O)n2nc1N1CCc2ncc(-c3cccnc3)cc2C1', 'human mAChR M4 (Homo sapiens, UniProt P08173)', 'not met'),
  ('Cc1cc(=O)n2nc(N3CCc4ncc(-c5cc(F)ccc5C)cc4C3)c(C)cc2n1', 'human mAChR M4 (Homo sapiens, UniProt P08173)', 'not met'),
  ('Cc1ccc2c(n1)CCN(c1nn3c(=O)ccnc3cc1C)C2', 'human mAChR M4 (Homo sapiens, UniProt P08173)', 'not met');
